Values compiled from ChEMBL document CHEMBL2074047.

- testedTarget: Solute carrier family 22 member 2 (Mus musculus, UniProt O70577)
- Sequence (O70577 whole entry): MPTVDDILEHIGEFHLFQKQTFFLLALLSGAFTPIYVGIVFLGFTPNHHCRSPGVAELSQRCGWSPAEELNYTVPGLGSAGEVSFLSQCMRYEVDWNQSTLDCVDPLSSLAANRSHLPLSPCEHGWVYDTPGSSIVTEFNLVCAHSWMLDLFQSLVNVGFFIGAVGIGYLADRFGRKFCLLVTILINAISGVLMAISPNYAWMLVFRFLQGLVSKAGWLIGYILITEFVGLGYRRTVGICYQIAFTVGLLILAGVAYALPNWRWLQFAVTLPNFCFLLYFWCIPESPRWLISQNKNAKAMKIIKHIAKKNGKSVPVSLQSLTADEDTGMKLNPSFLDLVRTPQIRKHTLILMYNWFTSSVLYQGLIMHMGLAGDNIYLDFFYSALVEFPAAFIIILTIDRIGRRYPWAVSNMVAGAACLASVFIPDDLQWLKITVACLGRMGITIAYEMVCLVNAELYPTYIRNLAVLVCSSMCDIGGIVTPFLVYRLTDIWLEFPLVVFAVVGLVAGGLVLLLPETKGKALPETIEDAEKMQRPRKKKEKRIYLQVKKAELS
- experimentDescription: TP_TRANSPORTER: inhibition of MPP+ uptake (MPP+: 1 uM) in Xenopus laevis oocytes
- Assay type: functional, cell-based, Oocyte
pIC50: −log10 of the molar value.
Class t: pIC50 at least 5. Class f: pIC50 below 5.

C=C[C@H]1C[N@@]2CC[C@H]1C[C@H]2[C@H](O)c1ccnc2ccc(OC)cc12 [QUININE]: t
CNC(=O)c1cccnc1 [NICOTINYL METHYLAMIDE]: f
CC[N+](CC)(CC)CC [TETRYLAMMONIUM]: t
C[N+](C)(C)CCO [CHOLINE]: f
CCN(CC)CCNC(=O)c1ccc(N)cc1 [PROCAINAMIDE]: f
